# tested_target: Cathepsin K (Homo sapiens, UniProt P43235)
# Sequence (P43235 whole entry): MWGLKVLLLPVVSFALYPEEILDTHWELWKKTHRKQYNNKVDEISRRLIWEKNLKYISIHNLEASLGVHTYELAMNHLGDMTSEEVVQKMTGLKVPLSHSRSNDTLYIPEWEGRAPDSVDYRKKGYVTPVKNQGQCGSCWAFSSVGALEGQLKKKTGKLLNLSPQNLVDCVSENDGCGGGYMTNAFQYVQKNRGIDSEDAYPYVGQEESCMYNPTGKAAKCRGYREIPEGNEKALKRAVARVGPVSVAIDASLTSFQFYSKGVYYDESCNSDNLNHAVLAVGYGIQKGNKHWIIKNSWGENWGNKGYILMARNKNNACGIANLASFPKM
Mark True for IC50 under 10 nM, False if at or over.

The examples below pair each entry with its known result.
item_smiles | tested_target | category_label
CCCC[C@H](NC(=O)O[C@@H]1CN(Cc2ccccc2)CC1(C)C)C(=O)C(=O)N[C@H](C)c1ccccc1 | Cathepsin K (Homo sapiens, UniProt P43235) | False
CCCC[C@H](NC(=O)O[C@@H]1CN(C(=O)NCc2ccccc2)CC1(C)C)C(=O)C(=O)N[C@H](C)c1ccccc1 | Cathepsin K (Homo sapiens, UniProt P43235) | True
CCCC[C@H](NC(=O)O[C@@H]1CN(C(=O)c2ccno2)CC1(C)C)C(=O)C(=O)N[C@H](C)c1ccccc1 | Cathepsin K (Homo sapiens, UniProt P43235) | True
CCCC[C@H](NC(=O)O[C@@H]1CN(C(=O)Oc2ccc3ccccc3c2)CC1(C)C)C(=O)C(=O)N[C@H](C)c1ccccc1 | Cathepsin K (Homo sapiens, UniProt P43235) | False
CCCC[C@H](NC(=O)O[C@@H](Cc1nnc(-c2ccccc2)o1)C(C)C)C(=O)C(=O)N[C@H](C)c1ccccc1 | Cathepsin K (Homo sapiens, UniProt P43235) | True

# input Here's an entry: "CCCC[C@H](NC(=O)O[C@@H]1CN(C(=O)OCCc2ccccc2)CC1(C)C)C(=O)C(=O)N[C@H](C)c1ccccc1" . Is its IC50 below 10 nM?
# output False

# input Param item: "CCCC[C@H](NC(=O)O[C@H](Cc1nnc(-c2ccc(F)cc2)o1)C(C)(C)C)C(=O)C(=O)N[C@H]1CCCNC1=O"
# output True

# input Param item: "CCCC[C@H](NC(=O)O[C@@H]1CN(C(=O)c2cccnc2)CC1(C)C)C(=O)C(=O)N[C@H](C)c1ccccc1"
# output False

* * *

A short record of pIC50 observed with Cathepsin K (Homo sapiens) follows.
// pIC50: -log10(molar conc.)

For orientation, consider the following solved cases.
item_smiles | outcome_measure | result
CCCC[C@H](NC(=O)O[C@@H]1CN(C(=O)c2c(C)noc2C)CC1(C)C)C(=O)C(=O)N[C@H](C)c1ccccc1 | pIC50 | 7.82
CCCC[C@H](NC(=O)O[C@@H]1CN(C(=O)OCc2ccc(-c3ccccc3)cc2)CC1(C)C)C(=O)C(=O)N[C@H](C)c1ccccc1 | pIC50 | 8.68
CCCC[C@H](NC(=O)O[C@@H]1CN(C(=O)Oc2ccc(-c3ccccc3)cc2)CC1(C)C)C(=O)C(=O)N[C@H](C)c1ccccc1 | pIC50 | 8.30

Next item in the queue.
# input Write down the reported pIC50 of "CCCC[C@H](NC(=O)O[C@@H]1CN(C(=O)Oc2ccccc2)CC1(C)C)C(=O)C(=O)N[C@H](C)c1ccccc1" , test system: Cathepsin K (Homo sapiens).
# output 7.54

Entry source: ChEMBL document CHEMBL1154815
